These data points were gathered from ChEMBL document CHEMBL1131210.

- Tgt: V-type proton ATPase subunit B, kidney isoform (Homo sapiens)
- Sequence (P15313 whole entry, canonical isoform): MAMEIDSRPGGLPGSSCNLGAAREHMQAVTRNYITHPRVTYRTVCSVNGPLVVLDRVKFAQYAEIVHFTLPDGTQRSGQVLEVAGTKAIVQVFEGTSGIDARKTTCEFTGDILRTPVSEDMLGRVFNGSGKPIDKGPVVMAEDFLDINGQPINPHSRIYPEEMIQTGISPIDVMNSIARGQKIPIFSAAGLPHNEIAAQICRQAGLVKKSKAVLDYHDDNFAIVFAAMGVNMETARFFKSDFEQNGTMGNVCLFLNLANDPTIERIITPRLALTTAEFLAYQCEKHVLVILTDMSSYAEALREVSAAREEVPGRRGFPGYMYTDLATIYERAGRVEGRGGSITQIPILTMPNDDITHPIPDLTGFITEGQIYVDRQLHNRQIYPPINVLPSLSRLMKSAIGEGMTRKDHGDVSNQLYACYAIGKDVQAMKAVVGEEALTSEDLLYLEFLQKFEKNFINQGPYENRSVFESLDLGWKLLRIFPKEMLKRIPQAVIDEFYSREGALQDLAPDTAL
- Experimental details: Compound was tested for inhibition of V-ATPase from human kidney cortex(hK)
Task for the reader: assign each of the following molecules its reported IC50.
Express your answer in nM, writing the number without its unit.

query: Supply reported IC50 belonging to this molecule: CO/C(=C\C=C\c1cc2cc(Cl)c(Cl)cc2[nH]1)C(=O)NCCCN1CCN(c2ncccn2)CC1
result: 370

query: Tell me IC50 reported for CCN(CC)CCCNC(=O)/C(=C/C=C/c1cc2cc(Cl)c(Cl)cc2[nH]1)OC
result: 3000

query: Consider the molecule CO/C(=C\C=C\c1cc2cc(Cl)c(Cl)cc2[nH]1)C(=O)NC1CC(C)(C)NC(C)(C)C1 and give its recorded IC50.
result: 440

query: Answer with reported IC50 of CO/C(=C\C=C\c1cc2cc(Cl)c(Cl)cc2[nH]1)C(=O)NC1C[C@H]2CC[C@@H](C1)N2C (some centres undefined)
result: 1320

----------
Task for the reader: assign each of the following compounds its reported pIC50.
- Tgt: V-type proton ATPase 116 kDa subunit a 1 (Gallus gallus, UniProt Q9I8D0)
- Sequence (Q9I8D0 whole entry): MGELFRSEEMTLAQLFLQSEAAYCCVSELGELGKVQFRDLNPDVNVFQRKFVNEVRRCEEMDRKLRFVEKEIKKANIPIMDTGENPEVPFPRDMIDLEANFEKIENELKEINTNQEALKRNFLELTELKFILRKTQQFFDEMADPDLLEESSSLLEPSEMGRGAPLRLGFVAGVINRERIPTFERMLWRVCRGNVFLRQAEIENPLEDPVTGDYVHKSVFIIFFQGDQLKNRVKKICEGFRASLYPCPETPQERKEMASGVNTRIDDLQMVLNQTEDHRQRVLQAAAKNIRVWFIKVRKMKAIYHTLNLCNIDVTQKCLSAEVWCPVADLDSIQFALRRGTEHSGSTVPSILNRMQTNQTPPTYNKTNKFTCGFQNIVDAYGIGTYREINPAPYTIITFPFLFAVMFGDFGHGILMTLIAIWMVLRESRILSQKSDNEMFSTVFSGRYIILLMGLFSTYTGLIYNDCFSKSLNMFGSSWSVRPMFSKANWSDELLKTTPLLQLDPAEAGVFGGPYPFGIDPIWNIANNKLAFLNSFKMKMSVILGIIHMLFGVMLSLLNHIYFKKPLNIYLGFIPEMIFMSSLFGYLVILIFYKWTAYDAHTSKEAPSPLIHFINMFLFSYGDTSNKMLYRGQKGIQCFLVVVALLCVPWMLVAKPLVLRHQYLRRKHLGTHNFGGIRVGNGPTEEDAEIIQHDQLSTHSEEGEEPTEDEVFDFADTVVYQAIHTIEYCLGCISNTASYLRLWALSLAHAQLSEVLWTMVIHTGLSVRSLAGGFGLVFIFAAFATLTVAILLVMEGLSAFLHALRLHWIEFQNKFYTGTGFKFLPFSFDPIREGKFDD
- Experimental details: Compound was tested for inhibition of V-ATPase from Chicken osteoclasts (cOc)
Value format note: pIC50 is -log10 of concentration (mol/L); just state the number.

query: Please give measured pIC50 of the following entry: COC(=O)/C(=C\C=C\c1cc2ccccc2[nH]1)OC
result: 4.52

query: Specify reported pIC50 for the compound shown: CO/C(=C\C=C\c1cc2cc(Cl)c(Cl)cc2[nH]1)C(=O)NCCCN1CCN(c2ncccn2)CC1
result: 7.22

query: Name the recorded pIC50 of the item CCN(CC)CCCNC(=O)/C(=C/C=C/c1cc2cc(Cl)c(Cl)cc2[nH]1)OC in your answer.
result: 6.74

query: Identify the reported pIC50 for the following entry. CO/C(=C\C=C\c1cc2cc(Cl)c(Cl)cc2[nH]1)C(=O)NC1C[C@H]2CC[C@@H](C1)N2C (stereo not given in full)
result: 7.00

query: // Input: CO/C(=C\C=C\c1cc2cc(Cl)c(Cl)cc2[nH]1)C(=O)NC1CC(C)(C)NC(C)(C)C1 . Output its pIC50 only.
result: 7.10

----------
- Tgt: V-type proton ATPase 116 kDa subunit a 1 (Gallus gallus, UniProt Q9I8D0)
- Experimental details: Compound was tested for inhibition of V-ATPase from Chicken adrenal glands(cAG)
- Type: tissue-based, Adrenal gland
Readout type: pIC50
In textbook form, pIC50 equals minus log to base ten of the concentration in mol/L.

query: State its pIC50 for this compound: CO/C(=C\C=C\c1cc2cc(Cl)c(Cl)cc2[nH]1)C(=O)NC1CC(C)(C)NC(C)(C)C1
result: 6.09

query: Check the records and state pIC50 for CCN(CC)CCCNC(=O)/C(=C/C=C/c1cc2cc(Cl)c(Cl)cc2[nH]1)OC
result: 5.55

query: Quick one: give measured pIC50 for CO/C(=C\C=C\c1cc2cc(Cl)c(Cl)cc2[nH]1)C(=O)NC1C[C@H]2CC[C@@H](C1)N2C (some centres undefined)
result: 5.60

query: Answer with the recorded pIC50 of CO/C(=C\C=C\c1cc2cc(Cl)c(Cl)cc2[nH]1)C(=O)NCCCN1CCN(c2ncccn2)CC1 only.
result: 6.03

----------
- Tgt: V-type proton ATPase 116 kDa subunit a 1 (Gallus gallus, UniProt Q9I8D0)
- Experimental details: Compound was tested for inhibition of V-ATPase from Chicken osteoclasts (cOc)
- Assay type: functional
Readout type: pIC50
# pIC50: negative log10 of molar concentration; output just the value

query: Give the reported value of pIC50 for this record: COC(=O)/C(=C\C=C\c1cc2ccccc2[nH]1)OC
result: 4.52
